testedOn: Biotinylated CoV2 Spike ECD PreS-AVI protein (SARS-CoV-2, UniProt P0DTC2 14-1208)
assayRemarks: Octet binning; competitor 8E9
Respond with true for binning response values of 0.09 and above, false for values below.

Ask | Confirm if binning response reported for the binder 5D7 VHH-Fc (Fc fusion) QVQLVESGGGLVQAGGSLRLSCAASGRTGSRYIMGWFRQAPGKEREFVAAINWRGDSTYYADSVKGRFTIARDNAKNTAYLQMNSLKPEDTAVYYCVADRGESYYYTRSTEYTYWGQGTQVTVSS is 0.09 or above.
Reply | true

Ask | Confirm if binning response reported for the binder 15H1 VHH-Fc (Fc fusion) QVQLVESGGGLAQAGGSLRLSCASSGLIFSGSAMGWFRQAPGKEREFVGVISWNGRTTYADSVKGRFTISRDDAVNMVWLQMNNLKPEDTAVYYCAADHLNYGSGDVNPRTYDYWGQGTQVTVSS is 0.09 or above.
Reply | false

Ask | Confirm if binning response reported for the binder 1A11 VHH-Fc (Fc fusion) QVQLVESGGGLVQAGGSLRLSCEVSGSIYSINSMGWYRQAPGKQRELVAGIVSDGRINYADSVKGRFTISRAKNTVYLQMNSLKPEDTAVYYCAADRAFVYAGDYDYLGQGTQVTVSS is 0.09 or above.
Reply | true

Ask | Confirm if binning response reported for the binder 8E9 VHH-Fc (Fc fusion) QVQLVESGGGLVEAGGSLRLSCVASGSSSSINAMGWYRQAPGKQRELVASISHDGETKYANSVKGRFTISRGNAKNTIYLQMNSLKPEDTAVYYCVGDVAWVVVAGEYDYWGQGTQVTVSS is 0.09 or above.
Reply | false

Ask | Confirm if binning response reported for the binder 3D4 VHH-Fc (Fc fusion) QVQLVESGGGLVQPGGSLRLSCAASGFTLDLNSIGWFRQAPGKEREGVSCISPSGSRMHYADSVKGRFTISRDNAKNTVYLQMNSLKPEDTAVYYCATGSPSYHYCSMYGLEYDSWGQGTQVTVPS is 0.09 or above.
Reply | false

Ask | Confirm if binning response reported for the binder 19C10 VHH-Fc (Fc fusion) QVQLVESGGGLVQPGGSLRLSCAASGFTLDLNSIGWFRQAPGKEREGVSCISPSASSTHYADSVKGRFTISRDNAKNTVYLQMNSLKPEDTAVYYCATGTPSYHYCSMYGLEYDDWGQGTQVTVSS is 0.09 or above.
Reply | true

Ask | Confirm if binning response reported for the binder 7A9 VHH-Fc (Fc fusion) QVQLVESGGGLVQAGGSLRLSCSASGGTASRSAMGWFRQAPGKEREFVAGISRRNSGSTYVADSYEDSVKGRFTISRDNAKNTIYLQMNSLKPEDTAVYYCAAEPTLGWYVPRRSVEYEYWGQGTQVTVSS is 0.09 or above.
Reply | true

Ask | Confirm if binning response reported for the binder 15H7 VHH-Fc (Fc fusion) QVQLVESGGRLVQAGGSLRLSCAAPGRTFRNLTLGWFRQAPGKEREFVASTSWPDDEMTYYTDSVKGRFTISRDNAKNTVYLQMNSLKPEDTAVYYCAAASWSGRSTLSYDYDYWGQGTQVTVST is 0.09 or above.
Reply | false

Ask | Confirm if binning response reported for the binder 11F8 VHH-Fc (Fc fusion) QVQLVESGGGLVQAGGSLRLSCAASGRTVGYYAVGWFRQAPGKERDFVAAISWSGRNTNYADSVTGRFTIFRDNAKNTVDLQMNSLKPEDTAVYYCAADYWNYGSGSEVPNNYDTWGQGTQVTVSS is 0.09 or above.
Reply | true
